measured.target: AUF1-RRM1,2 (UniProt Q14103-4 70-239)
Sequence (Q14103 other isoform, or with tags, fused parts or gaps): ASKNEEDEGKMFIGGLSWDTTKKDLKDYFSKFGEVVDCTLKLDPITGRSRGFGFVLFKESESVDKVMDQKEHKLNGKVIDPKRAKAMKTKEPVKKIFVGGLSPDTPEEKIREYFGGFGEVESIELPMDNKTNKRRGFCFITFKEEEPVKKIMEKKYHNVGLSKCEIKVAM
method.summary: ITC; DMA-135, RNA:DMA 1:1.6; ITC: 10 mM K2HPO4, 20 mM KCl, 0.5 mM EDTA, 4 mM BME, pH 6.5, 25 C; lysate pull-down: 5 mM HEPES pH 7.1, 40 mM KCl, 0.1 mM EDTA, 2 mM MgCl2, 2 mM DTT, 0.25 mg/ml heparin, 30 C
assay.conditions: protein: recombinant; tags: N-terminal His6, cleaved with TEV; hairpin with 5-nt bulge and 7-nt apical loop
assay.metric: pKd
Remember, pKd is on a log scale: it is -log10 of the molar concentration.

-- ask Reported pKd, binder GGAUCAAUAGCAGGUGUGGCACACCAGUCAUACCUUGAUCC (structured_RNA) [EV71 SLII (SLII2231)] : ____
-- reply 6.62
